Values were extracted from patent US20050209157A1.

Catalogue of S. pneumoniae MIC readings, one per entry.
Tested on: S. pneumoniae C719
Experiment: Antimicrobial assays II, NCCLS broth microdilution MIC
Type: cell-based, Streptococcus pneumoniae
Conditions: mean of three, in µg/mL
No end group written: not given here.

Here are 4 substances together with their reported answers.
> print(dat)
                                  substance    recorded.metric  recorded.measurement
1                       FAKLAKKLL-NH2 [P60]  S. pneumoniae MIC                  >128
2  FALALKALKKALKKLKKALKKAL-NH2 [P2, reference compound]  S. pneumoniae MIC                    32
3                 FAKALKALLKALKAL-NH2 [P64]  S. pneumoniae MIC                     2
4                FALALKKALKALKKAL-NH2 [P34]  S. pneumoniae MIC                     8

So what's the measured S. pneumoniae MIC for this one? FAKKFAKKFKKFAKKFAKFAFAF-NH2 [P301, reference compound] 8

So what's the measured S. pneumoniae MIC for this one? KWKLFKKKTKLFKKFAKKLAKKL-NH2 [P73] 64
